- Tested on: T-cells (peripheral blood mononuclear cells)
- assay details: T-cell proliferation assay (PHA-stimulated PBMC, tritiated thymidine incorporation)
- Format: cell-based, human
- test parameters: in vitro; PHA-stimulated human PBMC, 72 h + 18 h thymidine pulse; read-out: IC50, T-cell proliferation inhibition
Measured IC50, listed per entry.
value type: IC50 (µM)

CC(=O)O[C@]1(C(C)=O)CC[C@H]2[C@@H]3C[C@@](C)(O)C4=CC(=O)CC[C@]4(C)[C@H]3[C@@H](O)C[C@@]21C = 8.64
CC(=O)O[C@]1(C(C)=O)CC[C@H]2[C@@H]3C[C@H](C)C4=CC(=O)CC[C@]4(C)[C@H]3CC[C@@]21C [Compound 1, Medroxyprogesterone acetate] = 6.48
C[C@]12C=CC(=O)C=C1CC[C@@H]1[C@@H]2[C@@H](O)C[C@@]2(C)[C@H]1CC[C@]2(O)C(=O)CO [prednisolone, reference compound] = 9.75
